Assay: total protein half-life in vivo (active degradation + dilution); higher = more stable protein
Conditions: wild type E. coli NCM3722; growth: P-lim chemostat; doubling time 6 h
For each of the sequences below, state its total protein half-life in vivo.
Kindly format the answer as number then unit.

## Input So what does the record say about total protein half-life in vivo for MAYSKIRQPKLSDVIEQQLEFLILEGTLRPGEKLPPERELAKQFDVSRPSLREAIQRLEAKGLLLRRQGGGTFVQSSLWQSFSDPLVELLSDHPESQYDLLETRHALEGIAAYYAALRSTDEDKERIRELHHAIELAQQSGDLDAESNAVLQYQIAVTEAAHNVVLLHLLRCMEPMLAQNVRQNFELLYSRREMLPLVSSHRTRIFEAIMAGKPEEAREASHRHLAFIEEILLDRSREESRRERSLRRLEQRKN [P0ACL9] ?
## Output 5.59 h

## Input Entry MNKRDAINHIRQFGGRLDRFRKSVGGSGDGGRNAPKRAKSSPKPVNRKTNVFNEQVRYAFHGALQDLKSKPFATFLTVMVIAISLTLPSVCYMVYKNVNQAATQYYPSPQITVYLQKTLDDDAAAGVVAQLQAEQGVEKVNYLSREDALGEFRNWSGFGGALDMLEENPLPAVAVVIPKLDFQGTESLNTLRDRITQINGIDEVRMDDSWFARLAALTGLVGRVSAMIGVLMVAAVFLVIGNSVRLSIFARRDSINVQKLIGATDGFILRPFLYGGALLGFSGALLSLILSEILVLRLSSAVAEVAQVFGTKFDINGLSFDECLLLLLVCSMIGWVAAWLATVQHLRHFTPE [P0AC30] : reported total protein half-life in vivo = ?
## Output 5.99 h

## Input Which total protein half-life in vivo is reported for this sequence? MKKLITANDIREAHARGEQAMSVVLRASIITPEAREVADLLGFTITECDESIPVTASVPASVPADKTESQRIRETIIAQLPEGQFTESLVAQLMEKVMKEKQSLEQGAMQPSFKSVTGKGGIKVIDGSSVKFGRFDGAEPHCVGLTDLVTGDDGSSMAAGFMQWENAFFPWTLNYDEIDMVLEGELHVRHEGQTMIAKAGDVMFIPKGSSIEFGTTSSVKFLYVAWPANWQSL
## Output 2.44 h

## Input What measured total protein half-life in vivo goes with MLYIFDLGNVIVDIDFNRVLGAWSDLTRIPLASLKKSFHMGEAFHQHERGEISDEAFAEALCHEMALPLSYEQFSHGWQAVFVALRPEVIAIMHKLREQGHRVVVLSNTNRLHTTFWPEEYPEIRDAADHIYLSQDLGMRKPEARIYQHVLQAEGFSPSDTVFFDDNADNIEGANQLGITSILVKDKTTIPDYFAKVLC [P0A8Y3] ?
## Output 5.18 h

## Input Recorded total protein half-life in vivo for MSDMHSLLIAAILGVVEGLTEFLPVSSTGHMIIVGHLLGFEGDTAKTFEVVIQLGSILAVVVMFWRRLFGLIGIHFGRPLQHEGESKGRLTLIHILLGMIPAVVLGLLFHDTIKSLFNPINVMYALVVGGLLLIAAECLKPKEPRAPGLDDMTYRQAFMIGCFQCLALWPGFSRSGATISGGMLMGVSRYAASEFSFLLAVPMMMGATALDLYKSWGFLTSGDIPMFAVGFITAFVVALIAIKTFLQLIKRISFIPFAIYRFIVAAAVYVVFF , please?
## Output 6.83 h

## Input Would you mind telling me what total protein half-life in vivo value was observed for MKNSKAILQVPGTMKIISAEIPVPKEDEVLIKVEYVGICGSDVHGFESGPFIPPKDPNQEIGLGHECAGTVVAVGSRVRKFKPGDRVNIEPGVPCGHCRYCLEGKYNICPDVDFMATQPNYRGALTHYLCHPESFTYKLPDNMDTMEGALVEPAAVGMHAAMLADVKPGKKIIILGAGCIGLMTLQACKCLGATEIAVVDVLEKRLAMAEQLGATVVINGAKEDTIARCQQFTEDMGADIVFETAGSAVTVKQAPYLVMRGGKIMIVGTVPGDSAINFLKINREVTIQTVFRYANRYPVTIEAISSGRFDVKSMVTHIYDYRDVQQAFEESVNNKRDIIKGVIKISD ?
## Output 4.95 h

## Input Quick one: total protein half-life in vivo for MRSKYIVIEGLEGAGKTTARNVVVETLEQLGIRDMVFTREPGGTQLAEKLRSLVLDIKSVGDEVITDKAEVLMFYAARVQLVETVIKPALANGTWVIGDRHDLSTQAYQGGGRGIDQHMLATLRDAVLGDFRPDLTLYLDVTPEVGLKRARARGELDRIEQESFDFFNRTRARYLELAAQDKSIHTIDATQPLEAVMDAIRTTVTHWVKELDA [P0A720] ?
## Output 5.59 h

## Input Can you share its total protein half-life in vivo? I mean this sequence: MLTVKQIEAAKPKEKPYRLLDGNGLYLYVPVSGKKVWQLRYKIDGKEKILTVGKYPLMTLQEARDKAWTARKDISVGIDPVKAKKASSNNNSFSAIYKEWYEHKKQVWSVGYATELAKMFDDDILPIIGGLEIQDIEPMQLLEVIRRFEDRGAMERANKARRRCGEVFRYAIVTGRAKYNPAPDLADAMKGYRKKNFPFLPADQIPAFNKALATFSGSIVSLIATKVLRYTALRTKELRSMLWKNVDFENRIITIDASVMKGRKIHVVPMSDQVVELLTTLSSITKPVSEFVFAGRNDKKKPICENAVLLVIKQIGYEGLESGHGFRHEFSTIMNEHEWPADAIEVQLAHANGGSVRGIYNHAQYLDKRREMMQWWADWLDEKVE
## Output 5.34 h

## Input Data request, read-out total protein half-life in vivo, for MNPVPAQREYFLDSIRAWLMLLGIPFHISLIYSSHTWHVNSAESSLWLTLFNDFIHSFRMQVFFVISGYFSYMLFLRYPLKKWWKVRVERVGIPMLTAIPLLTLPQFIMLQYVKGKAESWPGLSLYDKYNTLAWELISHLWFLLVLVVMTTLCVWIFKRIRNNLENSDKTNKKFSMVKLSVIFLCLGIGYAVIRRTIFIVYPPILSNGMFNFIVMQTLFYLPFFILGALAFIFPHLKALFTTPSRGCTLAAALAFVAYLLNQRYGSGDAWMYETESVITMVLGLWMVNVVFSFGHRLLNFQSARVTYFVNASLFIYLVHHPLTLFFGAYITPHITSNWLGFLCGLIFVVGIAIILYEIHLRIPLLKFLFSGKPVVKRENDKAPAR
## Output 7.05 h

## Input total protein half-life in vivo lookup needed for MELKDYYAIMGVKPTDDLKTIKTAYRRLARKYHPDVSKEPDAEARFKEVAEAWEVLSDEQRRAEYDQMWQHRNDPQFNRQFHHGDGQSFNAEDFDDIFSSIFGQHARQSRQRPATRGHDIEIEVAVFLEETLTEHKRTISYNLPVYNAFGMIEQEIPKTLNVKIPAGVGNGQRIRLKGQGTPGENGGPNGDLWLVIHIAPHPLFDIVGQDLEIVVPVSPWEAALGAKVTVPTLKESILLTIPPGSQAGQRLRVKGKGLVSKKQTGDLYAVLKIVMPPKPDENTAALWQQLADAQSSFDPRKDWGKA , thanks.
## Output 5.76 h
